target: human Nav1.1 (Homo sapiens, UniProt P35498); construct: host or cells: HEK293; assay: Amplification of Nav1.1-derived voltage-gated sodium current (Nav1.1 current), automated patch clamp (Test 1); format: cell-based; settings: Concentration for evaluation 1 μM; HEK293 cell line stably expressing human Nav1.1
Nav1.1 current amplification rate (%) listing for selected compounds.
The number alone won't do; follow it with the unit.

Consider the reported Nav1.1 current amplification rate (%) for these compounds:
>  <compound>
CN(c1cnc2cnn(CC(=O)N3CCc4c(-c5cnn(C)c5)cccc43)c2n1)C1CCC1 [Example 694]

>  <Nav1.1 current amplification rate (%)>
448%

$$$$
>  <compound>
CN(c1cnc2cnn(CC(=O)N3CCc4c(-c5ccncc5)cccc43)c2n1)C1CCC1 [Example 689]

>  <Nav1.1 current amplification rate (%)>
286%

$$$$
>  <compound>
CC1CC=C(c2ccc(=O)n(CC(=O)Nc3ccc4ncnn4n3)n2)CC1 (centres unmarked) [Example 350]

>  <Nav1.1 current amplification rate (%)>
31%

$$$$
>  <compound>
CC1CC=C(c2ccc(=O)n(CC(=O)Nc3ccc4ncncc4c3)n2)CC1 (centres unmarked) [Example 355]

>  <Nav1.1 current amplification rate (%)>
130%

$$$$
>  <compound>
Cc1cc(NC(=O)Cn2ncc3ncc(N(C)C4CCCC4)nc32)cc2nccn12 [Example 684]

>  <Nav1.1 current amplification rate (%)>
39%

$$$$

Task item: What does the data say about its Nav1.1 current amplification rate (%)? Entry: CN(c1cnc2cnn(CC(=O)Nc3ccc4ncnn4c3)c2n1)C1CC1 [Example 664]
Reply: 34%

Task item: What does the data say about its Nav1.1 current amplification rate (%)? Entry: CO[C@H]1CCN(Cc2cccc3c2CCN3C(=O)Cn2nc(C3=CCC(C)CC3)ccc2=O)C1 (some centres unmarked) [Example 272]
Reply: 127%

Task item: What does the data say about its Nav1.1 current amplification rate (%)? Entry: CN(c1cnc2cnn(CC(=O)Nc3ccc(Cl)nc3)c2n1)C1CC1 [Example 722]
Reply: 35%

Reference for the values: patent US20230109839A1
